Attribute: IC50
- testedTarget: Mer (Homo sapiens (Human), UniProt Q12866)
- Sequence (Q12866 21-999): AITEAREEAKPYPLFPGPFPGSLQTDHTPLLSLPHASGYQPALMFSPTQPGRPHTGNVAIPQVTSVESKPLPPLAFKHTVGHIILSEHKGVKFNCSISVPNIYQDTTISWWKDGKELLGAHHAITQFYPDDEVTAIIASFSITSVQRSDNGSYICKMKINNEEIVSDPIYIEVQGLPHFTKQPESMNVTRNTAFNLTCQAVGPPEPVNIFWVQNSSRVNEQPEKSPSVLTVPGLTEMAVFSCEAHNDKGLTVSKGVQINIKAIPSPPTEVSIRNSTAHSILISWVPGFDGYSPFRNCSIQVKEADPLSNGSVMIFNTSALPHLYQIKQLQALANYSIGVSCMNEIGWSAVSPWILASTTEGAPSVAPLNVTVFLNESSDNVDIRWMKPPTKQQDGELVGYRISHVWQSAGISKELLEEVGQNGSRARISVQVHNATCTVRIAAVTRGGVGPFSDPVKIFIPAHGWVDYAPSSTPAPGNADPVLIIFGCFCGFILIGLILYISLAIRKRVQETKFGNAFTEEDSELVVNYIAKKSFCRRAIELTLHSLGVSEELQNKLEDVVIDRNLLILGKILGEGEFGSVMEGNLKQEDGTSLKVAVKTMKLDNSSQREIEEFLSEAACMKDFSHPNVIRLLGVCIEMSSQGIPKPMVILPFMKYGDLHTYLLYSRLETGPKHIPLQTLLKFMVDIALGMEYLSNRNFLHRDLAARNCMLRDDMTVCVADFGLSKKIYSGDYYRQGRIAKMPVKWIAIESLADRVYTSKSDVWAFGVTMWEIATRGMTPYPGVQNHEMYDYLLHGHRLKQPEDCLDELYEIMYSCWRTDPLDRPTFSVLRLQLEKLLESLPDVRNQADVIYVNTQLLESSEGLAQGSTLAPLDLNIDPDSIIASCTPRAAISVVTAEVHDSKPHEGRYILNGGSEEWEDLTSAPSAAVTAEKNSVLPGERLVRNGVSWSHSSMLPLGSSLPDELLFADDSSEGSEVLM
- protocolNotes: Mer autophosphorylation ELISA in transient transfected 293A cells
- Type: cell-based
- measurementSetup: cellular, MERTK-transfected 293A cells, phospho-Mer ELISA

Reference set, count: 2
smilesString: COc1nc2c(Oc3ncc(NC(=O)C4(C(=O)Nc5ccc(F)cc5)CC4)cc3F)ccnc2cc1OCC(N)=O
testedTarget: Mer (Homo sapiens (Human), UniProt Q12866)
IC50: 100 to 300 nM
//
smilesString: COc1cc2nccc(Oc3ncc(NC(=O)C4(C(=O)Nc5ccc(F)cc5)CC4)cc3F)c2cc1-c1nnco1
testedTarget: Mer (Homo sapiens (Human), UniProt Q12866)
IC50: 10 to 100 nM

Here is the next item to consider.
Exercise: What measured IC50 goes with `COc1cc2nccc(Oc3ccc(NC(=O)C4(C(=O)Nc5ccc(F)cc5)CC4)c(OC)n3)c2nc1OC` ?
Solution: 10 to 100 nM
